Tested on: Rattus norvegicus
Test: Area under curve (0-6 hr) value in rat at a concentration of 10 mg/kg after peroral administration.
Format: ADME, organism-based
Parameters: time < 6 hr, dose 10 mg/kg, route oral
Details: in vivo, po
METRIC: AUC 0-6h (ng·h/mL)

P: CO/N=C(\c1ccc(Br)cc1)C1CCN(C2(C)CCN(C(=O)c3c(C)cccc3N)CC2)CC1
Q: Cc1cccc(C)c1C(=O)N1CCC(C)(N2CCC(Nc3ccc(Br)cc3)CC2)CC1
Q. So which one has the bigger AUC 0-6h here, P or Q ? Let me know the label of the one you choose.
A. P

P: CON=C(c1ccc(Br)cc1)C1CCN(C2(C)CCN(C(=O)c3c(C)cccc3C)CC2)CC1
Q: CO/N=C(/c1ccc(Br)cc1)C1CCN(C2(C)CCN(C(=O)c3c(C)cccc3C)CC2)CC1
Q. Smaller AUC 0-6h value, P vs Q ? Provide the label of your selected option as the answer.
A. Q
(Q: 1200 ng·h/mL, P: 2100 ng·h/mL)
